molecular target: human melanocortin-4 receptor (human, UniProt P32245 1-332); test: cell-based or functional assay
Sequence (P32245 whole entry): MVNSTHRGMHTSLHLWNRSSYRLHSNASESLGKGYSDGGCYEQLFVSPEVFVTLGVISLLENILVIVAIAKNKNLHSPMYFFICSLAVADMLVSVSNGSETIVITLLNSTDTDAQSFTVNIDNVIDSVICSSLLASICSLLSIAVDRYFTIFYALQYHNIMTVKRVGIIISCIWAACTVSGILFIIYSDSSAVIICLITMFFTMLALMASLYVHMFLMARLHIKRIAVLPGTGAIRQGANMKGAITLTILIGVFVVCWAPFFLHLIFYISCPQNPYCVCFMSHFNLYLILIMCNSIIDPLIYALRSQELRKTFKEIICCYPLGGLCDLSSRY
Positions of bridges follow the written chain, without caps; N, C: chain ends. Non-standard residues stand in square brackets, D forms with d. dPhe(2-Cl) = N[C@H](Cc1ccccc1Cl)C(=O)O; Orn = NCCC[C@H](N)C(=O)O
# Intrinsic Activity, cAMP, 10 ng/mL Doxycycline per entry
Express it in %; write the number only.

[
  {
    "binder": "Ac-REP[dPhe(2-Cl)]RW[Orn]-NH2 (lactam 2-7; SMILES CC(=O)N[C@@H](CCCNC(=N)N)C(=O)N[C@H]1CCC(=O)NCCC[C@@H](C(N)=O)NC(=O)[C@H](Cc2c[nH]c3ccccc23)NC(=O)[C@H](CCCNC(=N)N)NC(=O)[C@@H](Cc2ccccc2Cl)NC(=O)[C@@H]2CCCN2C1=O, also called No. 88) [Ac-Arg-cyclo(Glu-Pro-D-Phe(2-Cl)-Arg-Trp-Orn)-NH2]",
    "unit_abbreviation": "%",
    "result_number": 89
  }
]

Then there is this binder:
Ask: Check the records and state Intrinsic Activity, cAMP, 10 ng/mL Doxycycline for Ac-R[Orn]N[dPhe(2-Cl)]RWE-NH2 (lactam 2-7) [Ac-Arg-cyclo(Orn-Asn-D-Phe(2-Cl)-Arg-Trp-Glu)-NH2]
Result: 100
